meta.source: paper PMC7000700

- Target Entity: RyR2 (Sus scrofa, UniProt A0A5G2R1W3)
- Sequence (A0A5G2R1W3 20-4900): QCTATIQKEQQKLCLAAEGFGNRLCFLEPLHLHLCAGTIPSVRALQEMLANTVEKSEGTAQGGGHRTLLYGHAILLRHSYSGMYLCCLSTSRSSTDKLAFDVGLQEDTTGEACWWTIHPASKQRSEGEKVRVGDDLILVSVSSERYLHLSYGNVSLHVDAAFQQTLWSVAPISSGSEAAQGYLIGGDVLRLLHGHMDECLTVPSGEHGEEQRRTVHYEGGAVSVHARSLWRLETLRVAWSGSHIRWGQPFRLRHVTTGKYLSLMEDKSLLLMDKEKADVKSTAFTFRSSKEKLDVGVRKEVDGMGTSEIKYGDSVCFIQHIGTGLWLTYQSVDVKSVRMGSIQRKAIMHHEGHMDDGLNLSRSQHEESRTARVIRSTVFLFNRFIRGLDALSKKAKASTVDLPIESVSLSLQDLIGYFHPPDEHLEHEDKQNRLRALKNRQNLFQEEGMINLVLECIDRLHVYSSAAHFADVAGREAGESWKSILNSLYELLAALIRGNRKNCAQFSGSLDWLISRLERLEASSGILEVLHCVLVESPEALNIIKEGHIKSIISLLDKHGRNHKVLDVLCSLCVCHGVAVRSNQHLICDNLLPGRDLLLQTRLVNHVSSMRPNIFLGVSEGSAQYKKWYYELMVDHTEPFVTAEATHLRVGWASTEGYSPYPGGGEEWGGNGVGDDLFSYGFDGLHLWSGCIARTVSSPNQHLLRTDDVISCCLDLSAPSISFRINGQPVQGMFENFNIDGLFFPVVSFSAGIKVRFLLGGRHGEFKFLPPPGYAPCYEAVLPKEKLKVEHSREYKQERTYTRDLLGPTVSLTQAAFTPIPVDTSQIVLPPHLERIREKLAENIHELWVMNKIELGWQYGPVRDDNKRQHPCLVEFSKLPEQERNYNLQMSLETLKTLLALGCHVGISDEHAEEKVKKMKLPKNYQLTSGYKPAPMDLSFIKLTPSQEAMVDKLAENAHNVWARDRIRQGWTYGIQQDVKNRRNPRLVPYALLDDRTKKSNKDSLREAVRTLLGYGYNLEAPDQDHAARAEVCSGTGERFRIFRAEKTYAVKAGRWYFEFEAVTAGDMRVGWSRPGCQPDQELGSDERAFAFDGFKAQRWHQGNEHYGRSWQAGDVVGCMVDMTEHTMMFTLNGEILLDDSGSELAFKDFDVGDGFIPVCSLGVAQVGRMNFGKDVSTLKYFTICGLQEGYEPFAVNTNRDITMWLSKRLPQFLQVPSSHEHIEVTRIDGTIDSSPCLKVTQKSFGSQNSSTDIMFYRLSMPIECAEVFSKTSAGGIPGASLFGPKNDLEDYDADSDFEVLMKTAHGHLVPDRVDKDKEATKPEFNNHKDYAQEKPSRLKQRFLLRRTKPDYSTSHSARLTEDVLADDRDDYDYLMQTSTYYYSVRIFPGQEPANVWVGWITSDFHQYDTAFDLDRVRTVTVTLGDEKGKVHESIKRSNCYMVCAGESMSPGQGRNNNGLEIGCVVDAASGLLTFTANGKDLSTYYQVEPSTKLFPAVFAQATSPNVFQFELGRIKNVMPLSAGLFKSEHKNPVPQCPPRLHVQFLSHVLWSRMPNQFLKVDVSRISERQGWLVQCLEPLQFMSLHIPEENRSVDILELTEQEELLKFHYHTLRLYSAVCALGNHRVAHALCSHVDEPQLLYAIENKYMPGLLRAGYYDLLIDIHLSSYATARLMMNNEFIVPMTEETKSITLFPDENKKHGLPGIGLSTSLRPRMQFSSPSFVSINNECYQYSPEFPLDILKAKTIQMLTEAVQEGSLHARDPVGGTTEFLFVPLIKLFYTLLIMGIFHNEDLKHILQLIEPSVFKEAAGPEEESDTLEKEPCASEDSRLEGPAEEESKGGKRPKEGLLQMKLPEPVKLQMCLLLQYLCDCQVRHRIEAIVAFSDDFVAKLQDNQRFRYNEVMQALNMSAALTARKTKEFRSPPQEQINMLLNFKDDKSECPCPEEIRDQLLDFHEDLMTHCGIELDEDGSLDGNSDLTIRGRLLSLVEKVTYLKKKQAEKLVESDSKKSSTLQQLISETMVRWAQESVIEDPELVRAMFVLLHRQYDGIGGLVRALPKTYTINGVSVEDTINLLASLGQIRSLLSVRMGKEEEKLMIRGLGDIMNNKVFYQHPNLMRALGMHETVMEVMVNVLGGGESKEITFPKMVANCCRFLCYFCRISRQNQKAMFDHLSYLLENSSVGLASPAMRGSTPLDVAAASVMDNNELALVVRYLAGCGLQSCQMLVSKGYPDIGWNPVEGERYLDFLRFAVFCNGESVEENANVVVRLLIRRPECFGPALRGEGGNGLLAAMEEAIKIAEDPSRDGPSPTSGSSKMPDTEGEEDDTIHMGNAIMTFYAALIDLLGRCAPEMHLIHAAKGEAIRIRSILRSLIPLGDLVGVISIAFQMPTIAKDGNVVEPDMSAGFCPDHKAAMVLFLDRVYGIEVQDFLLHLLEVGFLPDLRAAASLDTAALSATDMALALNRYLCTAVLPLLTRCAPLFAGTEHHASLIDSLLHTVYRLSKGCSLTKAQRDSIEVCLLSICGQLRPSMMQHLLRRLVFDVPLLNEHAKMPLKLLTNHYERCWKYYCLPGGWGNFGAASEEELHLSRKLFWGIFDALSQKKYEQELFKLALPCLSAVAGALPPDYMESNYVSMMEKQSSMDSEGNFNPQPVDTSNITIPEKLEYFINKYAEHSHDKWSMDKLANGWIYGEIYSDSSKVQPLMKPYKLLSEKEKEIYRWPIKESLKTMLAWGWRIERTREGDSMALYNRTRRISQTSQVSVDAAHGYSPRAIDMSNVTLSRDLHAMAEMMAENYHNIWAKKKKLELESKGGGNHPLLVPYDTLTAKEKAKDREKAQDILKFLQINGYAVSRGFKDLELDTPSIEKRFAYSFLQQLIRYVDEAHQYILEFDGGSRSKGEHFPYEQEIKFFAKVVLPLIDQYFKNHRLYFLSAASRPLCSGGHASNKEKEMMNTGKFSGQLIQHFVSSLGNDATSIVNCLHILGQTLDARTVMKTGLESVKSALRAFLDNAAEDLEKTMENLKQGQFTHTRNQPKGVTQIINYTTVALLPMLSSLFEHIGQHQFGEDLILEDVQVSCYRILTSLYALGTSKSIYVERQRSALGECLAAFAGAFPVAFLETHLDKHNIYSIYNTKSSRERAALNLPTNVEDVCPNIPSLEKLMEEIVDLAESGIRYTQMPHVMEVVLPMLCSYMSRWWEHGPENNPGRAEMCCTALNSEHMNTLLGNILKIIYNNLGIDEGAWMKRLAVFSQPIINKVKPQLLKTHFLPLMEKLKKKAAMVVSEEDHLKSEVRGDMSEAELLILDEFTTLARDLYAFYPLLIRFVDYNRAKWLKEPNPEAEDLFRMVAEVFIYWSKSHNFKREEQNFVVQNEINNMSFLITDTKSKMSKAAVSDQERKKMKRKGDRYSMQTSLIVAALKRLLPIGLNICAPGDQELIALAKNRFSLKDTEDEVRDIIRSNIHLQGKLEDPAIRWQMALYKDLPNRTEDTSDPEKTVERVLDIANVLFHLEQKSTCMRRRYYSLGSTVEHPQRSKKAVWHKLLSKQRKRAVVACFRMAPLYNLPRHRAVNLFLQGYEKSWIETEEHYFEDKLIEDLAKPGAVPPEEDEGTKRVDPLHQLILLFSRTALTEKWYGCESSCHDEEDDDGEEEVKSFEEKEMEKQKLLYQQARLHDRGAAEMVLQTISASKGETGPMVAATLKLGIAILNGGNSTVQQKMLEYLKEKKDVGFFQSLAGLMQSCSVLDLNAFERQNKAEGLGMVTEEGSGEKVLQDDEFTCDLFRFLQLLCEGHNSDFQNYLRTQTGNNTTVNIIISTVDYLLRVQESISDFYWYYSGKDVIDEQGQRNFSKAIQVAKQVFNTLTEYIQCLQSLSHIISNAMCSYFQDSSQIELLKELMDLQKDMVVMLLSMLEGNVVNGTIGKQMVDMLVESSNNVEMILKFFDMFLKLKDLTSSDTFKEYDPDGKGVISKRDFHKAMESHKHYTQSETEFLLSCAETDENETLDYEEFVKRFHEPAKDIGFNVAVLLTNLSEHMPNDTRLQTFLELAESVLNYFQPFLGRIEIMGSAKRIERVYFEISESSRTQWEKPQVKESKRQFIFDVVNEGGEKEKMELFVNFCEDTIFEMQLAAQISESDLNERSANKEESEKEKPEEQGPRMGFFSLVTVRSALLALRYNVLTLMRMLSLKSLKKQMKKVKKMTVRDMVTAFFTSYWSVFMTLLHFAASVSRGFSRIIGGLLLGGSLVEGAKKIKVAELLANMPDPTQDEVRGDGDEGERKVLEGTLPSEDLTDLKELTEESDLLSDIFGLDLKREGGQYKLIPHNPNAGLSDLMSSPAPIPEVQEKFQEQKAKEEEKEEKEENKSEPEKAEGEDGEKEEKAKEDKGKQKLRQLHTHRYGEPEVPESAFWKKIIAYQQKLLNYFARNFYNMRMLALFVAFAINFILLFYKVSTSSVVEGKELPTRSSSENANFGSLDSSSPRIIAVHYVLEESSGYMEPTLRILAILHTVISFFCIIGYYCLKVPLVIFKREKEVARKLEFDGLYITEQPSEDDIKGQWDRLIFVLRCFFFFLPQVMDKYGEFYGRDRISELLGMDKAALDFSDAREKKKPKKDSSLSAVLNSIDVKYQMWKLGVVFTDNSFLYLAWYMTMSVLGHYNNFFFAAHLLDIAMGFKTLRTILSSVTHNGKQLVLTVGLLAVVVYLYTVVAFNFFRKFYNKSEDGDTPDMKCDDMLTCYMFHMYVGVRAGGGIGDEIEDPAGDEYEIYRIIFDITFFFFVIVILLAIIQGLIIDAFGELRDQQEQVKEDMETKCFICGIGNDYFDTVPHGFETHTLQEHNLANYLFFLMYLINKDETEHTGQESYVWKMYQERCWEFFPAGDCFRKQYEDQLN
- Test Description: F-FKBP binding to RyR2 by co-sedimentation with cardiac SR membranes
- Parameters: using co-sedimentation with pig skeletal and cardiac SR membranes; from tissue; host or cells: pig cardiac muscle (crude SR membranes); species or system pig
- Measurement Setup: RyR2, 10 μM Hit, 30 nM Ca2+, 5 mM GSSG or GSH
Measured Attribute: Decrease of F-FKBP binding

Sample Smiles: CO[C@H]1C[C@@H]2CC[C@@H](C)[C@@](O)(O2)C(=O)C(=O)N2CCCC[C@H]2C(=O)O[C@H]([C@H](C)C[C@@H]2CC[C@@H](OC(=O)C(C)(CO)CO)[C@H](OC)C2)CC(=O)[C@H](C)/C=C(\C)[C@@H](O)[C@@H](OC)C(=O)[C@H](C)C[C@H](C)/C=C/C=C/C=C/1C
Target Entity: RyR2 (Sus scrofa, UniProt A0A5G2R1W3)
Result: 70%
--
Sample Smiles: O=c1c(O)c(-c2cc(O)c(O)c(O)c2)oc2cc(O)cc(O)c12
Target Entity: RyR2 (Sus scrofa, UniProt A0A5G2R1W3)
Result: did not alter
--
Sample Smiles: Cc1ccc(C(=O)Nc2ccc(S(=O)(=O)O)c3cc(S(=O)(=O)O)cc(S(=O)(=O)O)c23)cc1NC(=O)c1cccc(NC(=O)Nc2cccc(C(=O)Nc3cc(C(=O)Nc4ccc(S(=O)(=O)O)c5cc(S(=O)(=O)O)cc(S(=O)(=O)O)c45)ccc3C)c2)c1
Target Entity: RyR2 (Sus scrofa, UniProt A0A5G2R1W3)
Result: did not alter
--
Sample Smiles: C=CC[C@@H]1/C=C(\C)C[C@H](C)C[C@H](OC)[C@H]2O[C@@](O)(C(=O)C(=O)N3CCCC[C@H]3C(=O)O[C@H](/C(C)=C/[C@@H]3CC[C@@H](O)[C@H](OC)C3)[C@H](C)[C@@H](O)CC1=O)[C@H](C)C[C@@H]2OC
Target Entity: RyR2 (Sus scrofa, UniProt A0A5G2R1W3)
Result: 70%
